Recorded values, source patent US9725436B2.

# Protocol Summary: Pharmacokinetic study in the guinea pig, 10 mg/kg oral dosing
# Assay type: in vivo
# Test Context: in vivo
Measure Name: half-life (min)
Note: unit min is implicit; provide only the numeric part.

Entry CC(=O)N1CCN(c2ccc(/C=C/c3cc(F)cc(-c4ccncc4)c3)cc2)CC1 — recorded half-life = 360

According to the records, this molecule O=S(=O)(N1CCN(c2ccc(/C=C/c3cc(F)cc(-c4ccncc4)c3)cc2)CC1)C(F)(F)F [drawing 726] displays half-life of 318

Sample CCS(=O)(=O)N1CCN(c2ccc(/C=C/c3cc(F)cc(-c4ccncc4)c3)cc2)CC1 [drawing 725] ; half-life observed: 288

###

Give measured AUC(0-inf) for each item. Keep answers brief.
# Protocol Summary: Pharmacokinetic study in the guinea pig, 10 mg/kg oral dosing
# Format: in vivo
# Test Context: in vivo
# Experimental: Pharmacokinetic studies in the guinea pig were run using 1 mg/kg IV dosing (20% DMA, 40% TEG, 40% water) and 10 mg/kg oral dosing (2% Tween-80, 98% HPMC (1% water)).
Please make sure the unit comes right after the number.

According to the records, this molecule CCS(=O)(=O)N1CCN(c2ccc(/C=C/c3cc(F)cc(-c4ccncc4)c3)cc2)CC1 [drawing 725] displays AUC(0-inf) of 4190 ng·h/mL

Lab note: measured AUC(0-inf) of CC(=O)N1CCN(c2ccc(/C=C/c3cc(F)cc(-c4ccncc4)c3)cc2)CC1 was 14900 ng·h/mL

response.value for O=S(=O)(N1CCN(c2ccc(/C=C/c3cc(F)cc(-c4ccncc4)c3)cc2)CC1)C(F)(F)F [drawing 726] (field: AUC(0-inf)) = 2450 ng·h/mL

###

# Measured On: recombinant CYP-17 (Homo sapiens (Human), UniProt P05093)
# Sequence (P05093 whole entry, species assumed): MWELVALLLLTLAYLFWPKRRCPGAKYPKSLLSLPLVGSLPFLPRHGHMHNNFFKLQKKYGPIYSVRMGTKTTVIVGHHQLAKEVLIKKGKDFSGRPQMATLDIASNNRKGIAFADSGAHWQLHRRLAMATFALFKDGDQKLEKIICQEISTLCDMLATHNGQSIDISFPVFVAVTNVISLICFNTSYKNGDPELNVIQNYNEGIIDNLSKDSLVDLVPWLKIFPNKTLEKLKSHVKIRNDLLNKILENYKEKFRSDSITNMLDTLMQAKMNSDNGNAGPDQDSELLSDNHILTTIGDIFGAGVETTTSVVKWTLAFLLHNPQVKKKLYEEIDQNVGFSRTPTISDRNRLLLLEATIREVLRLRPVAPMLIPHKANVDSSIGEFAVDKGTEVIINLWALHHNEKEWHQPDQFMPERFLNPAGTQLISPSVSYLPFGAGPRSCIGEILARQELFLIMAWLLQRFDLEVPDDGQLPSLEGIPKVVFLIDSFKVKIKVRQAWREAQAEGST
# Protocol Summary: Cyp17 assay protocol (3H-acetic acid release from [21-3H] 17α-hydroxyl-Pregnenolone)
# Test Context: AD293 cells over-expressing recombinant CYP-17
Measure Name: pIC50
Expect pIC50 as a plain number equal to -log10 of the molar concentration.

The compound identified as CC(=O)N1CCN(c2ccc(/C=C/c3cc(Cl)cc(C(=C(C)C)c4cccnc4)c3)cc2)CC1 registered its pIC50 at 6.68

// recorded pIC50 for CCOC(=O)CNC(=O)N1CCN(c2ccc(/C=C/c3cc(F)cc(-c4ccncc4)c3)cc2)CC1 : 8.10

The compound identified as Fc1cc(/C=C/c2ccc(N3CCN(CC4CC4)CC3)cc2)cc(-c2ccncc2)c1 registered its pIC50 at 8.30

So for CC(C)S(=O)(=O)N1CCN(c2ccc(CCc3cc(F)cc(-c4ccncc4)c3)cc2)CC1 , the logged pIC50 turned out to be 8.40

pIC50 in this record for CC(=O)N1CCN(c2ccc(/C=C/c3cc(Cl)cc(C(O)(c4cccnc4)C(C)C)c3)cc2)CC1 (centres unmarked) : 6.62

CCS(=O)(=O)N1CCN(c2ccc(CCc3cc(F)cc(-c4ccncc4)c3)cc2)CC1 has a reported pIC50 of 8.70

Recorded pIC50 (compound N#Cc1cccc(CN2CCN(c3ccc(/C=C/c4cc(Cl)cc(Cn5ccnc5)c4)cc3)CC2)c1 ): 7.60

Sample CCOC(=O)CNC(=O)NC1CCN(c2ccc(/C=C/c3cc(Cl)cc(Cn4ccnc4)c3)cc2)CC1 ; pIC50 observed: 8.46
